Assay: Activators via SNCA 5'UTR binding, MLPCN (AID 1814)
Details: alpha-synuclein 5'UTR reporter, activators screen; tested at 7.5 µM
About 22,000 (7.3%) of roughly 300,000 compounds were called active. About 2% were inconclusive and are not listed. No stated cut-off is given here; in the data, active means activity score below about -60%; inconclusive means mostly about -28% to -61%; inactive means positive scores. Shown is part of a subset that was picked to be rich in actives.
Classes used: YES = active, NO = inactive

1. O=C(Nc1ccc(Br)cn1)c1ccc([N+](=O)[O-])cc1Cl ... YES
2. CCOc1cc2[nH]c(=S)n(Cc3ccc(C(=O)N4CCN(C)CC4)cc3)c(=O)c2cc1OCC ... NO
3. CCOc1ccc2nc(N(CCCN(C)C)C(=O)c3ccc(C(=O)c4ccccc4)cc3)sc2c1 ... NO
4. Cc1ccc(-c2csc(-c3cc(C)on3)n2)cc1 ... YES
5. COc1ccc(COC(=O)c2n[nH]c3ccccc23)cc1F ... YES
6. CCc1noc(C)c1C(=O)Nc1nc2ccc(OC)cc2s1 ... YES
7. COc1ccc(Nc2ncnc3sc(C)cc23)cc1 ... YES

----------
Test: Activators via SNCA 5'UTR binding, MLPCN (AID 1814)
Conditions: alpha-synuclein 5'UTR reporter, activators screen; tested at 7.5 µM
Out of some 300,000 compounds screened, about 22,000 (7.3%) were called active. Roughly 2% stayed inconclusive and do not appear here. Rule as the data show it: active = activity score below about -60%; inconclusive = mostly about -28% to -61%; inactive = positive scores. This is one part of a sample in which actives are shown more often than they occur.
Classes used: Yes = active, No = inactive

1) CCOC(=O)/C(C#N)=C/c1ccc(OCC(=O)Nc2ccccc2)c(OC)c1 ... Yes
2) COc1cccc(/C=N/Nc2ccc(Cl)nn2)c1 ... Yes
3) C=C(C)C(=O)O[C@H]1C/C(C)=C\C(=O)/C=C(\C)[C@H](O)[C@@H]2OC(=O)C(=C)[C@@H]21 ... Yes
4) COC(=O)c1cc(Cl)c(NC(=O)c2ccco2)cc1OC ... Yes
5) Fc1ccc2nc(N3CCCCC3)sc2c1 ... Yes
6) Cc1cccc(N(CC(=O)Nc2ccc(-c3nc4ccc(C)cc4s3)cc2)S(C)(=O)=O)c1 ... Yes
7) Cc1nc(NC(=O)c2ccc3c(c2)OCCO3)ccc1Br ... Yes
8) OCCCNc1nccc(-c2cc(Nc3cccc(Cl)c3)ncn2)n1 ... No
9) O=c1[nH]c(/C=C/c2cccc(Br)c2)nc2ccccc12 ... Yes
10) CCS(=O)(=O)Nc1ccc(C(=O)NCCSc2ccccc2)cc1 ... Yes
11) Clc1ccc(N/N=C/c2cccs2)nn1 ... Yes
12) CC[C@]1(O)C[C@@H]2CN(CCc3c([nH]c4ccccc34)[C@@](C(=O)OC)(c3cc4c(cc3OC)N(C)[C@H]3[C@@](O)(C(=O)OC)[C@H](OC(C)=O)[C@]5(CC)C=CCN6CC[C@]43[C@@H]65)C2)C1 ... No
13) Cc1cc(/C=N/NC(=O)c2cccnc2)c(C)n1CC(C)C ... Yes
14) CSc1ccc(/C=N/NC(=O)c2cccc(Cl)c2)cc1 ... Yes
15) O=C(CSCc1ccccc1)N1CCc2ccccc21 ... Yes
16) COc1ccc(-c2noc(-c3ccc(C)cc3)n2)cc1 ... Yes
17) CSCCC(NC(=O)c1ccco1)C(=O)Nc1cc(C)ccn1 (stereo unspecified) ... Yes
18) COc1ccc(/C(N)=N/OC(=O)Cc2ccccc2)cc1 ... Yes
19) C=CCn1c(=NC(=O)c2cccs2)sc2cc(NC(C)=O)ccc21 ... Yes
20) CC1CCc2sc3nc(N4CCN(CCO)CC4)n4ncnc4c3c2C1 (stereo unspecified) ... Yes
21) Cc1ccsc1/C=N/Nc1ccc(Cl)nn1 ... Yes
22) OC(COc1ccc2ccccc2c1)CN1CCOCC1 (stereo unspecified) ... Yes
23) Cc1nn2cc(-c3ccc(Cl)cc3)cnc2c1Br ... Yes
24) NS(=O)(=O)c1ccccc1NC(=O)c1c(O)c2ccccc2[nH]c1=O ... Yes
25) CCN1CCN(C(C(=O)NC2CCCC2)c2cc3c(cc2[N+](=O)[O-])OCO3)CC1 (stereo unspecified) ... Yes
26) c1c2c(cc3sc(N4CCCCC4)nc13)OCCO2 ... No

----------
Assay: Activators via SNCA 5'UTR binding, MLPCN (AID 1814)
Conditions: alpha-synuclein 5'UTR reporter, activators screen; active compounds read low; tested at 7.5 µM
About 22,000 (7.3%) of roughly 300,000 compounds were called active. Not shown: some 2% with an inconclusive outcome. The full list was thinned out, with actives kept by preference.
measured.quantity: activity score (%)

1. Cc1cc(C(=O)N/N=C/c2ccc(N3CCOCC3)cc2)c(C)o1 ... -87.1
2. Cc1sc2ncnc(N3CCC(C(=O)Nc4nc5ccc(Cl)cc5s4)CC3)c2c1C ... -183
3. COc1ccc2nc(NC(=O)c3ccc(Br)s3)sc2c1 ... -209
4. COc1cc(/C=C(\C#N)c2nc3ccccc3[nH]2)ccc1O ... -152
5. COc1ccc2cc(C(=O)NCC3CCCO3)[nH]c2c1 (configuration not stated) ... -90.6
6. COc1cc(/C=C(\C#N)c2nc3c(s2)CC(C)CC3)ccc1O (configuration not stated) ... -208
7. CSc1ccccc1NC(=O)c1cc(C2CC2)on1 ... -116
8. Cc1c(C(N)=O)sc2ncn(CCOc3ccccc3)c(=O)c12 ... -66.2
9. O=C(Nc1ncc([N+](=O)[O-])s1)C1COc2ccccc2O1 (configuration not stated) ... -93.3
10. COc1cc(OC)cc(C(=O)Nc2ccc(-c3nc4ccccc4o3)c(O)c2)c1 ... -61.8
11. N#CC1=C(N)Oc2cc(O)ccc2C1C1CCCCC1 (configuration not stated) ... -65.6
12. COc1ccc2nc(Nc3nc4cc5c(cc4s3)OCCO5)sc2c1 ... -103

----------
Test: Activators via SNCA 5'UTR binding, MLPCN (AID 1814)
Conditions: alpha-synuclein 5'UTR reporter, activators screen; tested at 7.5 µM
About 22,000 (7.3%) of roughly 300,000 compounds were called active. Not shown: some 2% with an inconclusive outcome. No stated cut-off is given here; in the data, active means activity score below about -60%; inconclusive means mostly about -28% to -61%; inactive means positive scores. The entries come from a sample that favours actives as a whole.
Classes used: True for active, False for inactive

1. Cc1c(C)c2cc3c4c(oc3c(C)c2oc1=O)CCCC4 ... True
2. CN(Cc1ccco1)S(=O)(=O)c1nnc(NC(=O)c2ccccc2)s1 ... True
3. COc1c(O)cc2oc(-c3ccc(O)c(O)c3)cc(=O)c2c1O ... True
4. CN(C)CCNC(=O)c1[nH]nc2c1CCc1ccccc1-2 ... True
5. CCCOc1ccc(-c2nc(N)n[nH]2)cc1 ... True
6. CCN(CC)CCOc1ccc2c(c1)C(=NNC(=O)c1ccccn1)c1cc(OCCN(CC)CC)ccc1-2 ... False
7. CCn1ccnc1CN(C)Cc1nc(-c2ccc3c(c2)OCO3)no1 ... True
8. O=C(/C(=C/c1cccc(Cl)c1)c1nc2ccccc2[nH]1)c1ccccc1 ... True
9. CC(C)CNC(=S)NC(=O)c1ccc(Cl)cc1 ... True
10. c1ccc(CN2CCC(N=C3NN=C(c4ccc5c(c4)OCCO5)CS3)CC2)cc1 ... True
11. O=C(NC(=S)NC1CCCCC1)c1ccc(Cl)cc1 ... True

----------
Assay: Activators via SNCA 5'UTR binding, MLPCN (AID 1814)
Settings: alpha-synuclein 5'UTR reporter, activators screen; active compounds read low; tested at 7.5 µM
Among all 300,000 compounds or so, about 22,000 (7.3%) were called active. About 2% were inconclusive and are not listed. The entries come from a sample that favours actives as a whole.
measured.quantity: activity score (%)

1. Cc1ccc2nc(Nc3ccccc3)cc(C)c2c1 ... -82.2
2. O=C(NC1CCCCCCC1)c1cccs1 ... -77.8
3. O=C(CSc1nc2ccccc2o1)N/N=C/c1ccccc1C(=O)O ... -97.9

----------
Assay: Activators via SNCA 5'UTR binding, MLPCN (AID 1814)
Settings: alpha-synuclein 5'UTR reporter, activators screen; active compounds read low; tested at 7.5 µM
The whole screen tested about 300,000 compounds, of which about 22,000 (7.3%) were called active. Not shown: some 2% with an inconclusive outcome. Many of the other results were omitted from the sample, so actives are more common in it than they were.
Label 1 when activity score is strictly below -70%; at or above that, label -1.

1. O=C(Nc1ccc(N2CCOCC2)nc1)c1c(F)cccc1F ... 1
2. CCCCCCCCn1c2c(c(=N)c3c1CCC3)CCCC2 ... -1
3. COc1ccc2[nH]c3c(=O)n(Cc4ccco4)cnc3c2c1 ... -1
4. CCN(CC)c1ccc(C(=O)c2cnc(/N=C/N(C)C)s2)cc1 ... -1
5. CCCCCOc1ccc(CSC2=NCCN2)cc1[N+](=O)[O-] ... 1
6. Cn1c(CN2CCOCC2)nc2cc(NC(=O)c3ccc(Cl)cc3)ccc21 ... 1
7. Cc1ccc(NC(=O)NC(=O)c2ccccc2)cc1F ... 1
8. Cn1c(-c2ccc(C(=O)c3ccccc3)s2)nc2ccccc21 ... 1
9. C(=N\Nc1ccc2ccccc2n1)/c1ccc2c(c1)OCO2 ... -1
10. O=C(Nc1ccc(OC(F)(F)F)cc1)c1ccc2c(c1)no[n+]2[O-] ... 1
11. Fc1ccccc1OCCSc1nc2ccccc2o1 ... 1
12. COc1ccc(NC(=O)CS(=O)(=O)c2ccccc2)cc1 ... -1
13. CC1=CC(=C(C#N)c2nc3ccccc3s2)C=C(C)N1c1ccc(F)cc1F ... 1
14. COC(=O)c1sc(NC(=S)NC(=O)c2ccc(C)cc2)nc1C ... 1
15. COc1ccc(NC(=O)c2cc(-c3ccc(C)cc3)on2)cc1 ... 1
16. CCCCOc1ccc(CSC(=N)N)cc1[N+](=O)[O-] ... 1
